biological target: Heat shock factor protein 1 (Mus musculus, UniProt P38532); test: enhancement of HSF1-driven luciferase signal – cell-based, NIH3T3, luminescence, dose retest, confirmation (AID 435004); format: functional;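 note: stress induced by proteasome inhibitor MG132 added 30 min after compound; luciferase reporter driven by HSF1 response element in NIH3T3 cells; actives raise luminescence as potentiators of the MG132 stress response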
Sequence (P38532 whole entry): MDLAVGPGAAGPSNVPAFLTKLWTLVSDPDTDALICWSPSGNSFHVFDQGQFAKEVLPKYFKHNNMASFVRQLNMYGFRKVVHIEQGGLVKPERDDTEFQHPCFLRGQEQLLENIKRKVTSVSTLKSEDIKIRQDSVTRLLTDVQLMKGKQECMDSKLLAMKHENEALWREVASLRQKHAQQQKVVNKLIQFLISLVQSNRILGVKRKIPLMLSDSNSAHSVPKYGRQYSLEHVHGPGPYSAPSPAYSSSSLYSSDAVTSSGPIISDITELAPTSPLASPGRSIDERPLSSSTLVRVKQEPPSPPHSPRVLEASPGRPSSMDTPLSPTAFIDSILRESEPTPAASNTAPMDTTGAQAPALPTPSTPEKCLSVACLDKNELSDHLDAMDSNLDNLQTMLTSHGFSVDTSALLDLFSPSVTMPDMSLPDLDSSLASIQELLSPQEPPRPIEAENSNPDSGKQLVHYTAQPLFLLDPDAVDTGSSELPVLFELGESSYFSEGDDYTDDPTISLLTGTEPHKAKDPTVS
Calls of active or inactive are those of the source. Cut-off read from the data, not from the text of the source: actives have a measured EC50 and inactives only a lower limit.
Possible outcomes: active, inactive

compound: Cc1cc(O)nc(-n2ncc(C#N)c2N)n1
assigned class: inactive

compound: Cc1c(CNCCc2ccccc2)c(C(=O)O)c(C)n1-c1ccccc1
assigned class: inactive

compound: O=C(/C=C/c1cccc([N+](=O)[O-])c1)NC(=S)Nc1ccc(CN2CCOCC2)cc1
assigned class: active

compound: COc1cc2nc(CSc3nc(-c4ccc(F)cc4)cs3)nc(O)c2cc1OC
assigned class: inactive

compound: CC1(C)c2cc(O)ccc2OC1N1CCOCC1 (stereo not given)
assigned class: inactive

compound: CCN(CCCNC(=O)CCCN1C(=O)COc2ccc(C)cc21)c1cccc(C)c1
assigned class: inactive

compound: CN(C)CCc1nc2ccccc2c(=O)n1-c1ccccc1
assigned class: inactive

compound: COc1cc(OC)c(OC)cc1CN(C)CCc1ccccn1
assigned class: inactive

compound: COC(=O)Cn1c(=O)c2c(nc3n2CC(C)CN3CCc2ccccc2)n(C)c1=O (stereo not given)
assigned class: inactive
